- assay method text: LD50 p.o. in rats (acute toxicity)
- experimental setup: rat, in vivo, po, compounds of the examples (formula I)
Counter-ions that a name gives are not always drawn.
LD50 listing for selected molecules.

Here are 3 molecules together with their reported answers.
molecule	parameter measured	observed value
COc1cccc(-c2c(N)n(C)c3ccccc23)c1 [Example 9, hydrochloride]	LD50	> 1000 mg/kg
CN1C(=NC(=O)c2ccccc2)C(C)(C)c2ccccc21 [Example 28, 2-Benzoylimino-1,3,3-trimethylindoline]	LD50	> 1000 mg/kg
Cn1c(NC(=O)Nc2ccccc2)c(-c2ccc(Cl)cc2)c2ccccc21 [Example 34]	LD50	> 1000 mg/kg

Input: Could you share which LD50 value was measured for CN1C(=N)C2(CCCCC2)c2ccccc21 [Example 13] ?
Output: 100 mg/kg

###

- assay method text: LD50 p.o. in rats (acute toxicity)
- experimental setup: rat, in vivo, po, hydrazines of formula II
parameter measured: LD50 (mg/kg)
Number in mg/kg, nothing else.

compound	parameter measured	observed value
CCC(=O)NN(C)c1ccccc1 [1-Phenyl-1-methyl-2-propionylhydrazine]	LD50	500
CC(C)C(=O)NN(C)c1ccccc1 [1-Phenyl-1-methyl-2-isobutyrylhydrazine]	LD50	500
CN(NC(=O)C1CC1)c1ccccc1	LD50	500
CN(NC(=O)C1CCCCC1)c1ccccc1	LD50	500

Input: Sample CN(NC(=O)C1CCCC1)c1ccccc1 — what was its LD50?
Output: 500

Input: Any idea what its LD50 is? The compound is CC(=O)NN(C)c1ccccc1 [1-Phenyl-1-methyl-2-acetylhydrazine]
Output: 500

Input: Bench note: what LD50 did COc1ccc(N(C)NC(=O)C(C)C)cc1 show?
Output: 500

Origin of the recorded values: patent US3984563A
